tested on: Plasmodium falciparum; experiment: Antimalarial activity against chloroquine-sensitive Plasmodium falciparum D6 infected in RBC assessed as parasite LDH activity after 72 hrs; format: functional, organism-based; conditions: D6, 72 h
Consider the following compounds; for each one, report its IC50.
Give bare numbers, in nM.

Some solved entries appear below for comparison.
COc1c(C[C@@H](C)O)c2c3c(C[C@@H](C)O)c(OC)c(=O)c4c(O)cc5c(c6c(cc(O)c(c1=O)c62)OCO5)c43: 1080
CC[C@@H](C)[C@H]1O[C@@H](c2c(OC)c(-c3ccccc3)c[n+]([O-])c2OC)[C@H](C)C[C@@H]1C: 6760

// each compound listed below needs its IC50
1. COc1c(C[C@@H](C)OC(C)=O)c2c3c(C[C@@H](C)OC(C)=O)c(OC)c(=O)c4c(O)cc5c(c6c(cc(O)c(c1=O)c62)OCO5)c43
2. COc1c(C[C@@H](C)OC(C)=O)c2c3c(C[C@@H](C)O)c(OC)c(=O)c4c(O)cc5c(c6c(cc(O)c(c1=O)c62)OCO5)c43

Reply:
1. 2750
2. 2780

Per the record, `C[C@@H]1CC[C@H]2[C@@H](C)C(=O)O[C@@H]3O[C@@]4(C)CC[C@@H]1[C@]32OO4` has IC50 of 20

* * *

tested on: SK-MEL; assay: Cytotoxicity against human SK-MEL cells assessed as viable cells by neutral red dye method; type: functional, cell-based
Consider the following molecules; for each one, report its pIC50.
One number for each entry, as −log10 of the molar value.

COc1c(C[C@@H](C)OC(C)=O)c2c3c(C[C@@H](C)O)c(OC)c(=O)c4c(O)cc5c(c6c(cc(O)c(c1=O)c62)OCO5)c43: 5.42

// each molecule listed below needs its pIC50
1. COc1c(C[C@@H](C)OC(C)=O)c2c3c(C[C@@H](C)OC(C)=O)c(OC)c(=O)c4c(O)cc5c(c6c(cc(O)c(c1=O)c62)OCO5)c43
2. COc1c(C[C@@H](C)O)c2c3c(C[C@@H](C)O)c(OC)c(=O)c4c(O)cc5c(c6c(cc(O)c(c1=O)c62)OCO5)c43

Reply:
5.31
5.44

* * *

experiment: Selectivity index, ratio of IC50 for african green monkey Vero cells to IC50 for chloroquine-sensitive Plasmodium falciparum D6; type: toxicity, cell-based; settings: read-out: Ratio IC50
Consider the following molecules; for each one, report its selectivity ratio.
Give bare numbers.

Some solved entries appear below for comparison.
COc1c(C[C@@H](C)O)c2c3c(C[C@@H](C)O)c(OC)c(=O)c4c(O)cc5c(c6c(cc(O)c(c1=O)c62)OCO5)c43: 4.8
COc1c(C[C@@H](C)OC(C)=O)c2c3c(C[C@@H](C)OC(C)=O)c(OC)c(=O)c4c(O)cc5c(c6c(cc(O)c(c1=O)c62)OCO5)c43: 1.6

Kindly review the next molecule as well.
Per the record, `COc1c(C[C@@H](C)OC(C)=O)c2c3c(C[C@@H](C)O)c(OC)c(=O)c4c(O)cc5c(c6c(cc(O)c(c1=O)c62)OCO5)c43` has selectivity ratio of 1.9

* * *

Consider the following molecules; for each one, report its IC50.
tested on: KB; experiment: Cytotoxicity against human KB cells assessed as viable cells by neutral red dye method; format: functional, cell-based
One number for each entry, in µM.

COc1c(C[C@@H](C)OC(C)=O)c2c3c(C[C@@H](C)OC(C)=O)c(OC)c(=O)c4c(O)cc5c(c6c(cc(O)c(c1=O)c62)OCO5)c43: 8.7
COc1c(C[C@@H](C)OC(C)=O)c2c3c(C[C@@H](C)O)c(OC)c(=O)c4c(O)cc5c(c6c(cc(O)c(c1=O)c62)OCO5)c43: 8.5

Per the record, `COc1c(C[C@@H](C)O)c2c3c(C[C@@H](C)O)c(OC)c(=O)c4c(O)cc5c(c6c(cc(O)c(c1=O)c62)OCO5)c43` has IC50 of 7.1

* * *

assay: Selectivity index, ratio of IC50 for african green monkey Vero cells to IC50 for chloroquine-resistant Plasmodium falciparum W2; type: toxicity, cell-based; settings: read-out: Ratio IC50
Consider the following compounds; for each one, report its selectivity ratio.
Give bare numbers.

Some solved entries appear below for comparison.
COc1c(C[C@@H](C)OC(C)=O)c2c3c(C[C@@H](C)OC(C)=O)c(OC)c(=O)c4c(O)cc5c(c6c(cc(O)c(c1=O)c62)OCO5)c43: 2.3
COc1c(C[C@@H](C)O)c2c3c(C[C@@H](C)O)c(OC)c(=O)c4c(O)cc5c(c6c(cc(O)c(c1=O)c62)OCO5)c43: 3.2

Kindly review the next compound as well.
Per the record, `COc1c(C[C@@H](C)OC(C)=O)c2c3c(C[C@@H](C)O)c(OC)c(=O)c4c(O)cc5c(c6c(cc(O)c(c1=O)c62)OCO5)c43` has selectivity ratio of 1.7
